Hey, just so you know, these numbers are from paper PMC12595484.

# Experiment summary: Spectroscopy of HaloTag ligands and HaloTag conjugates
# Assay type: physicochemical
# Applied conditions: 10 mM HEPES, pH 7.3
Endpoint label: λabs (nm)

compound="CC1(C)C2=CC(=[N+]3CC(C(=O)NCCOCCOCCNC(=O)CCCC[C@@H]4SC[C@@H]5NC(=O)N[C@@H]54)C3)C=CC2=C(c2cc(C(=O)NCCOCCOCCCCCCCl)ccc2C(=O)[O-])c2ccc(N3CCC3)cc21 (some centres unmarked)" value=610
compound="C[Si]1(C)C2=CC(=[N+]3CC(C(=O)NCCOCCOCCNC(=O)CCCC[C@@H]4SC[C@@H]5NC(=O)N[C@@H]54)C3)C=CC2=C(c2cc(C(=O)NCCOCCOCCCCCCCl)ccc2C(=O)[O-])c2ccc(N3CCC3)cc21 (some centres unmarked)" value=647
compound="O=C(CCCCC1SCC2NC(=O)NC21)NCCOCCOCCNC(=O)C1C[N+](=c2ccc3c(-c4cc(C(=O)NCCOCCOCCCCCCCl)ccc4C(=O)[O-])c4ccc(N5CCC5)cc4oc-3c2)C1 (centres unmarked)" value=552
compound="C[Si]1(C)c2cc(N3CC(F)C3)ccc2C2(OC(=O)c3ccc(C(=O)NCCOCCOCCCCCCCl)cc32)c2ccc(N3CC(F)C3)cc21 [6HTL, JF635–HaloTag ligand, reference compound]" value=640
compound="C[Si]1(C)C2=CC(=[N+]3CC(F)(C(=O)NCCOCCOCCNC(=O)CCCC[C@@H]4SC[C@@H]5NC(=O)N[C@@H]54)C3)C=CC2=C(c2cc(C(=O)NCCOCCOCCCCCCCl)ccc2C(=O)[O-])c2ccc(N3CC(F)C3)cc21 (some centres unmarked)" value=636
